target: HLA-A02.01 (human); experiment: competition vs radiolabeled reference peptide on purified MHC I, gel filtration
Please respond with 1 (yes) when measured IC50 is strictly beneath 300 nM, and with 0 (no) in all other cases.

[[record]]
binder = "GVYTFLPST (also called ESR1, S463P)"
cat = "0 (no)"

[[record]]
binder = "ILIRKAMTV (also called EPHB2(-1))"
cat = "1 (yes)"

[[record]]
binder = "VLLSVHLIV (also called APC, AVEW)"
cat = "1 (yes)"

[[record]]
binder = "CLADVLLSV (also called APC, AVEW)"
cat = "1 (yes)"

[[record]]
binder = "FFFETKSCSV (also called C15ORF40(+1))"
cat = "1 (yes)"

[[record]]
binder = "NVVPLYGLL (also called ESR1, D538G)"
cat = "0 (no)"

[[record]]
binder = "GVYTFLPSTL (also called ESR1, S463P)"
cat = "0 (no)"

[[record]]
binder = "KLGGGQHGEV (also called ABL1, Y253H)"
cat = "0 (no)"

[[record]]
binder = "GLSISCTTL (also called β2M, . . ; MPAV)"
cat = "1 (yes)"

[[record]]
binder = "TQISSATEYL (also called ABL1, M351T)"
cat = "0 (no)"

[[record]]
binder = "FLSSWDYRRM (also called C15ORF40(+1))"
cat = "0 (no)"

[[record]]
binder = "ALFFFFFET (also called C15ORF40(+1))"
cat = "0 (no)"

[[record]]
binder = "NVVPLCDLL (also called ESR1, Y537C)"
cat = "0 (no)"

[[record]]
binder = "LATEKSRWS (also called BRAF, V600E)"
cat = "0 (no)"

[[record]]
binder = "ELFPLIFPA (also called C11orf95: RELA)"
cat = "1 (yes)"

[[record]]
binder = "IIEFMTYGNL (also called ABL1, T315I)"
cat = "0 (no)"


Hey, just so you know, these numbers are from patent US20220282217A1.
